EC50 values, listed per item
- TEST TARGET: rTAAR9 (Rattus norvegicus)
- Construct: Full Taar coding regions were cloned into pcDNA3.1
- Sequence (Q923Y6 whole entry): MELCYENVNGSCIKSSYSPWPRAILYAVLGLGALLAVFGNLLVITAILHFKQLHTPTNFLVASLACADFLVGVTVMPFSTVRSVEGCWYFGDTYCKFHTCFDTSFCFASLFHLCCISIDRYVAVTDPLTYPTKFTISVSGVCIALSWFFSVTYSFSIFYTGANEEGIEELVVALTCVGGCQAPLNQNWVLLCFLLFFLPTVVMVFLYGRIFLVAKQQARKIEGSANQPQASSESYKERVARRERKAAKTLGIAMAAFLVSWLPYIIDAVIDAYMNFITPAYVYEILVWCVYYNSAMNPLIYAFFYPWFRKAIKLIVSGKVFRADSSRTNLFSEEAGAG
- METHOD DESCRIPTION: CRE-SEAP reporter gene assay in HEK293 cells transfected with rTAAR9
- REPORTED CONDITIONS: FIG. 11A, functional with or without 'Rho tag', EC50 ± s.e.m., 4-parameter Hill equation
Give the quantity in µM, number only.

1) CN(C)C1CCCCC1 ... 26.6

In the following, a different compound is considered.
Problem: Observed EC50 on rTAAR9 (Rattus norvegicus) for CN1CCCCC1 , please.
Solution: 18.3

---

- TEST TARGET: mTAAR7f (Mus musculus)
- Sequence (Q5QD08 whole entry): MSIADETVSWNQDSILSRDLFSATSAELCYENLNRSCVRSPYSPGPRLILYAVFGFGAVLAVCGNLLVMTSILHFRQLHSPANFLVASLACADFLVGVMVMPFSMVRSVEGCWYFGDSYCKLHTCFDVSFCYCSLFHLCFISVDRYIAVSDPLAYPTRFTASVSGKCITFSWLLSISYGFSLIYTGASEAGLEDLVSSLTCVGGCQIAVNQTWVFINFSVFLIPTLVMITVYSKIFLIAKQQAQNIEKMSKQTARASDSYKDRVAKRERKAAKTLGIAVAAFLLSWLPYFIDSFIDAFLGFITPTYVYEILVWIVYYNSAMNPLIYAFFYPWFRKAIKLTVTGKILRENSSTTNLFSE
- METHOD DESCRIPTION: CRE-SEAP reporter gene assay in HEK293 cells transfected with mTAAR7f
- REPORTED CONDITIONS: FIG. 11B, not the mutant mTAAR7f-SS, functional with or without 'Rho tag', EC50 ± s.e.m., 4-parameter Hill equation
- Protocol: FIG. 11 illustrates the dose-dependent responses of TAARs to amines. […] EC50 values (±s.e.m, bottom right) were calculated using SigmaPlot (Systat Software) and a 4-parameter Hill equation. […] Here, we set out to identify agonists for additional mouse and rat TAARs. […] Transfected cells were incubated with test chemicals, and phosphatase activity was quantified with a fluorescent substrate as a reporter for TAAR activation. […]
REPORTED METRIC: EC50
Express the reported value numerically, then name its unit.

Problem: Suppose we examine the compound CN(C)C1CCCCC1 ; what EC50 value has been reported?
Solution: 0.44 µM

---

- TEST TARGET: rTAAR7h (Rattus norvegicus, UniProt Q923Y4)
- Sequence (Q923Y4 whole entry): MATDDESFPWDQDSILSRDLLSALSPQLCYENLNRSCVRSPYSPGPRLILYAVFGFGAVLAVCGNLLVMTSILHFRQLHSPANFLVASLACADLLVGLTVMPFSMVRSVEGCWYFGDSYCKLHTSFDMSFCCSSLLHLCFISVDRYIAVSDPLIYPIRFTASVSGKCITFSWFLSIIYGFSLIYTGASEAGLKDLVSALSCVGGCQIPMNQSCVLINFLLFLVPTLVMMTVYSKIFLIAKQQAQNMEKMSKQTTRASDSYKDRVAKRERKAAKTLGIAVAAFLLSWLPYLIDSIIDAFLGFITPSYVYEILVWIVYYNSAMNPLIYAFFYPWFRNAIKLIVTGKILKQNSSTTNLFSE
- METHOD DESCRIPTION: CRE-SEAP reporter gene assay in HEK293 cells transfected with rTAAR7h
- REPORTED CONDITIONS: FIG. 11A, functional with or without 'Rho tag', EC50 ± s.e.m., 4-parameter Hill equation
REPORTED METRIC: EC50 (µM)
Give the quantity in µM, number only.

Problem: Suppose we examine the compound CCCCCCCCN(C)C ; what EC50 value has been reported?
Solution: 12.7

---

- TEST TARGET: UniProtKB Q5QD11
- Sequence (Q5QD11 whole entry): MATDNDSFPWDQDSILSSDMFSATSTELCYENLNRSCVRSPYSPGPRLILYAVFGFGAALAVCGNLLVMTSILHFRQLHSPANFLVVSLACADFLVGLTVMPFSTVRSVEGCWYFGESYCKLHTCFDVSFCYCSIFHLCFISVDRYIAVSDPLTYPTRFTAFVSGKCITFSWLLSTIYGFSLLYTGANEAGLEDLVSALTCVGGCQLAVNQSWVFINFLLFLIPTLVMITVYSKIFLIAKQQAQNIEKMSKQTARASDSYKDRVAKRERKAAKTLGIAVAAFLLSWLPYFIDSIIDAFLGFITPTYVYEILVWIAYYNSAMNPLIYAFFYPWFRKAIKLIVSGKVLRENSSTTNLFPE
- METHOD DESCRIPTION: CRE-SEAP reporter gene assay in HEK293 cells transfected with mTAAR7b
- REPORTED CONDITIONS: FIG. 11B, functional with or without 'Rho tag', EC50 ± s.e.m., 4-parameter Hill equation
REPORTED METRIC: EC50 (µM)
Give the quantity in µM, number only.

Problem: Suppose we examine the molecule CCCCN(C)C ; what EC50 value has been reported?
Solution: 20.1

---

- TEST TARGET: rTAAR7b (Rattus norvegicus, UniProt Q923X8)
- Sequence (Q923X8 whole entry): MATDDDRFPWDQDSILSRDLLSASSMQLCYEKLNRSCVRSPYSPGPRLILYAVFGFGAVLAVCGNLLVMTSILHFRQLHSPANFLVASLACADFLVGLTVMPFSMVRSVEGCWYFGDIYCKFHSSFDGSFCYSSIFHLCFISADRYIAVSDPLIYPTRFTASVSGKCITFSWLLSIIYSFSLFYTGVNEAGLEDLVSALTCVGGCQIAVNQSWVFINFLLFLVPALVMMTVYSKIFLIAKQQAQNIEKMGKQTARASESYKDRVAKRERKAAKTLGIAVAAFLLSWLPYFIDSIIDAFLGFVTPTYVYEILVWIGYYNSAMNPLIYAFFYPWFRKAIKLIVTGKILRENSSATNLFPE
- METHOD DESCRIPTION: CRE-SEAP reporter gene assay in HEK293 cells transfected with rTAAR7b
- REPORTED CONDITIONS: FIG. 11A, rTAAR7b did not work with a 'Rho tag' (unmodified form), EC50 ± s.e.m., 4-parameter Hill equation
REPORTED METRIC: EC50 (µM)
Give the quantity in µM, number only.

Problem: Observed EC50 on rTAAR7b (Rattus norvegicus, UniProt Q923X8) for CN(C)C1CCCCC1 , please.
Solution: 33.2
